Measured apparent KD of MS2 coat protein by item
- Tested on: MS2 coat protein
- METHOD_SUMMARY: apparent KD of MS2 coat protein; higher = weaker reporter binding
- CONDITION_CONTEXT: Eterna round: R107; input ligand: theophylline 20 uM
The answer consists of two parts: a number and, after it, its unit.

>  <CHAIN_SEQUENCE>
AAACAUGAGGAUCACCCAUGUGCUCCUGUCCGAGGACCGGUACGGCCGCCACUCGGUUCUCGGGAGGAUGGUCAAAGACUAUCCA [Omei Trp A SS B v10]

>  <OBSERVED_RESULT>
44.7 nM

$$$$

UUGUUGUUUGGAAGGAGCGUGUAUGAUUAAGAACAUGAGGAUCACCCAUGUUGUAGGAUAGCACAGGUAGGUCGCCGGGUGGUGG [11.W] on MS2 coat protein gives apparent KD of MS2 coat protein = 22.5 nM

AUAACAUGAGGAUCACCCAUGUAAGCAGAUACCAGCUAGGAAACUAGCCCUUGGCAGCUGCAAUCCUCAUGUAUUGCAGCUGCAA [(M1)-(M2)-(T1)-(T2)-(M)'-(T)'_Design1] on MS2 coat protein gives apparent KD of MS2 coat protein = 26.2 nM

GGAUUACGAAAGUAGUCCUCAAGUUCGAGACGAGGACCGGUACGGCCGCCACUCGAACAUGAGGAUCACCCAUGUAGCGAAAGCU [Tryptophan A 22] on MS2 coat protein gives apparent KD of MS2 coat protein = 382 nM

UCCUCCUCCGCAAGGAGGAGGAGUUGCGAUACCAGCACGGAAACGUGCCCUUGGCAGCGCACAUGAGGAUCACCCAUGUCAUGUU [#1 Exclusion - Theophylline A Attempt #9 (HarryS)] on MS2 coat protein gives apparent KD of MS2 coat protein = 23.8 nM

AUACAUGAGGAUCACCCAUGUUAUAGUGAAGGAGCGACAUUUAUGUCAGGUAGGUCGCACUGUUGUUUAAUGAUUCUUGGAUCUU [#20 Exclusion - Arginine A] on MS2 coat protein gives apparent KD of MS2 coat protein = 18.9 nM

----------
- Tested on: MS2 coat protein
- METHOD_SUMMARY: apparent KD of MS2 coat protein; designed switch direction (-1 OFF switch, 1 ON switch): -1; higher = weaker reporter binding
- CONDITION_CONTEXT: input ligand: FMN 200 uM
Measured apparent KD of MS2 coat protein by item
Supply the numeric figure in µM, leaving out any unit text.

Please review the entries below; each comes with its answer.
>  <CHAIN_SEQUENCE>
ACUUAUAGAGGAUAUACAGAAUAUUACAUGAGGAUCACCCAUGUUCUUCAAUGUAUAUAAGUAGAAGGCUAAGGUU [Mat - Exclusion 5 - JL Mod - D5] (Eterna round: R97, puzzle: Exclusion 5)

>  <ASSAY_TARGET>
MS2 coat protein

>  <apparent KD of MS2 coat protein [µM]>
0.282

$$$$
>  <CHAIN_SEQUENCE>
GCUGGACAAGGAUAUAUAUGACGUGCUUCGGCACGAAGAUCACAUGAGGAUCACCCAUGUAGAAGGUGUCCAGC [E2/8-C2] (Eterna round: R97, puzzle: Exclusion 2)

>  <ASSAY_TARGET>
MS2 coat protein

>  <apparent KD of MS2 coat protein [µM]>
0.594

$$$$
>  <CHAIN_SEQUENCE>
GGCCUGGAAGGAUAUACAUGAGGAUCACCCAUGUGAAGCCGGUGCAAAUUGACACGAUGUAGAAGGUCCAGCCG [Eternabot (L1) Solution 92] (Eterna round: R97, puzzle: Exclusion 3)

>  <ASSAY_TARGET>
MS2 coat protein

>  <apparent KD of MS2 coat protein [µM]>
0.467

$$$$

get_value(item= GGUAGGUGUGACUUGGGUGACAUGAGGAUCACCCAUGUCACAAGCUUGUUGCUCGCCUUGUAGUUAACCCAUGUCAC [LRO Sensor-off var1-30 mod of Stov1-13-A1 by Brourd] (Eterna round: R97, puzzle: Sensor, turn-off variant 1) , readout=apparent KD of MS2 coat protein) returns 0.0341

get_value(item= AGUACAUGAGGAUCACCCAUGUCAGUUAUCAAUGGCACGCCUAAGGAUAUUGAGCGUCAAAGGCUCAAGAAGGUAGCUUUAUGC [Eternabot solution 12] (Eterna round: R96, puzzle: Exclusion NG 3) , readout=apparent KD of MS2 coat protein) returns 0.0137

get_value(item= GCCUCACUUGAGGAUCACCCAAGUCAGGAUAUUCACUGAACUGCGUAACAGUUCGGCCGAAGAAGGGAUUCGGG [Uscedian] (Eterna round: R97, puzzle: Exclusion 1) , readout=apparent KD of MS2 coat protein) returns 0.0356

get_value(item= GGUACUCAAAGAGUACCAAUACGAACAUGAGGAUCACCCAUGUAGGAUAUGCUACUCAAAGAGUAGCAGAAGGACAUGUACCUU [Far Half Aptamer v6] (Eterna round: R96, puzzle: Exclusion NG 3) , readout=apparent KD of MS2 coat protein) returns 0.227

get_value(item= AAGAUGUGAGGAUAUGUAUCGCAUAUAGAGCGAACACUAGGAUAGAAGGCACAUGAGGAUCACCCAUGUGAUCG [Eternabot (L2) Solution 73] (Eterna round: R97, puzzle: Exclusion 4) , readout=apparent KD of MS2 coat protein) returns 0.0399

get_value(item= ACUUAUAGAGGAUAUACAGUUUAUUACAUGAGGAUCACCCAUGUUCUUCAAUGUCCUAAAGUAGAAGGCUAAGGAA [Mat - Exclusion 5 - Eli Mod - D12] (Eterna round: R97, puzzle: Exclusion 5) , readout=apparent KD of MS2 coat protein) returns 0.0188

get_value(item= GUCUGCACGCUGCGGUCCUACAUGAGGAUCACCCAUGUGGUCUGGUGGCGUGGGUCGCCGGACUUGGCUCGUCUUGG [salish99_S_TOV1_R5_048] (Eterna round: R97, puzzle: Sensor, turn-off variant 1) , readout=apparent KD of MS2 coat protein) returns 0.0148

get_value(item= GUCAUCAAACAUGGGUGUAACAUGAGGAUCACCCAUGUUAUCAAGUUUUUUGCUCGUCUUAUAAUAAGUUUGAUGAC [Antenna 13 - Jieux - Sensor, turn-off variant 1] (Eterna round: R97, puzzle: Sensor, turn-off variant 1) , readout=apparent KD of MS2 coat protein) returns 0.0875

get_value(item= CCUAGUUGGUAAGGAUAUCCUACACUGUUCUGACCCGGGCAAGCUACAUGAGGAUCACCCAUGUGGGAGAAGGUGCGUCAACGC [Design 13] (Eterna round: R96, puzzle: Exclusion NG 2) , readout=apparent KD of MS2 coat protein) returns 0.0308

get_value(item= GUAGAGUGAGGAUAUACAAGAUCGAUAGAUCGGCGAUCCAUACAUGAGGAUCACCCAUGUAGAAGGCACUCUAC [Mat - Exclusion 2 - Eli Mod - D7] (Eterna round: R97, puzzle: Exclusion 2) , readout=apparent KD of MS2 coat protein) returns 0.218

get_value(item= AGUACUAACACGUCGGUGUUAGUACAAUAAGCUUGUGAAACAUGAGGAUCACCCAUGUCCUCAUAAGCUCGUCUUAU [salish99_TOv2_r3_080] (Eterna round: R96, puzzle: Sensor v3, turn-off variant 2) , readout=apparent KD of MS2 coat protein) returns 0.0164

get_value(item= UCCUUGUUGGAGGAUAUGCAUAGCAUCACGCCUGUAGAAGGCCAAACAUGAGGAUCACCCAUGUGCAUGGGAUG [Eternabot (L1) Solution 77] (Eterna round: R97, puzzle: Exclusion 6) , readout=apparent KD of MS2 coat protein) returns 0.244

get_value(item= CUGACUCAAGGAUAUUGUACUGCUGACAUGAGGAUCACCCAUGUAUGUUAACUCGGCCGACGAGAAGGUGACAAAA [BotMod 7 - Jieux - Exclusion 5] (Eterna round: R97, puzzle: Exclusion 5) , readout=apparent KD of MS2 coat protein) returns 0.126

get_value(item= ACGCGAGUAGGAGGAUAUUCCGAGCGCGGGCCGGGAGAAGGCCUAGAUCGUGAACAUGAGGAUCACCCAUGUGGGAUGAUCUAA [Ededaranri] (Eterna round: R96, puzzle: Exclusion NG 1) , readout=apparent KD of MS2 coat protein) returns 0.00823

get_value(item= UCGGCGUCAGGAUAUCCAAUAUAUGACAUGAGGAUCACCCAUGUUUCCACUCGUACCUCCGGAGAAGGGACGAAUA [Ex5 #91] (Eterna round: R97, puzzle: Exclusion 5) , readout=apparent KD of MS2 coat protein) returns 0.0309

----------
- Tested on: MS2 coat protein
- METHOD_SUMMARY: apparent KD of MS2 coat protein; designed switch direction (-1 OFF switch, 1 ON switch): -1; higher = weaker reporter binding
- CONDITION_CONTEXT: Eterna round: R95; input ligand: FMN 200 uM
# label = YES if apparent KD of MS2 coat protein >= 40 nM else NO

// below: answered sequences
>  <CHAIN_SEQUENCE>
GGUCUGCGAGGAUAUACAUGAGGAUCACCCAUGUGAGUGAUACUAGUGAGGUCGAUUGGUAGAAGGCGCGGACG [JL-ex3-2.05 salish99 mod] (puzzle: Exclusion 3)

>  <ASSAY_TARGET>
MS2 coat protein

>  <ASSIGNED_LABEL>
NO

$$$$
>  <CHAIN_SEQUENCE>
CGUGUCUUUUACGUGAGUGGUGGGUGCAACAGGUGGGUUACAUGAGGAUCACCCAUGUGCUCACUUGCUCGUCUUUU [Grok-var2-09] (puzzle: Sensor v3, turn-off variant 2)

>  <ASSAY_TARGET>
MS2 coat protein

>  <ASSIGNED_LABEL>
YES

$$$$
>  <CHAIN_SEQUENCE>
CGAGUGUAAGGAUAUUCGGCGCCAGAGAACGAUCUGACGUAGAAGAAGGUACAUGAGGAUCACCCAUGUGGUUA [Geinzarace] (puzzle: Exclusion 4)

>  <ASSAY_TARGET>
MS2 coat protein

>  <ASSIGNED_LABEL>
YES

$$$$
>  <CHAIN_SEQUENCE>
CUUCACCCACCAGAGCUCACCCACAUACCUGCUCAGGUGACAUGAGGAUCACCCAUGUUUUUUGCCCGUCUUAUCUU [Atquertebi] (puzzle: Sensor v3, turn-off variant 2)

>  <ASSAY_TARGET>
MS2 coat protein

>  <ASSIGNED_LABEL>
NO

$$$$

Query sequence follows.
Hi team, for GAUUAUGCGAGCUUUAGGGACAUGAGGAUCACCCAUGUUCGUCUUGUUGAUCUAGGUGCACUGACAUACCUAAAUCU [JMF 88] (puzzle: Sensor v3, turn-off variant 1) , is the recorded apparent KD of MS2 coat protein at or above 40 nM?
NO
